Origin of measurements: patent US20150274820A1

Molecular target: T1, recombinant human VEGF165 (human, UniProt P15692 27-191)
T1 construct: mature; Isoform VEGF165 of the entry; also called hVEGF165; hVEGF
T1 sequence (P15692 other isoform, or with tags, fused parts or gaps): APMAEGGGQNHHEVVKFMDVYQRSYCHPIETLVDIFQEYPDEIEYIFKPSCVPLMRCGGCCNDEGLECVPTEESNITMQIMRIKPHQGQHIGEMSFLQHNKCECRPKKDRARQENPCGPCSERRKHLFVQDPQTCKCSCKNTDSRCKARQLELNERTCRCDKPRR
Assay: Biacore SPR, VEGF immobilized, pH 5
// reported kon for each item listed
measured attribute: kon (M⁻¹ s⁻¹)

1. 567-max (scFv, VL and VH tied by name; also called Protein Nr; 874) scFv: EIVMTQSPSTLSASVGDRVIITCQADQSIYIWLSWYQQKPGKAPKLLIYKASTLESGVPSRFSGSGSGTQFTLTISSLQPDDFATYYCQNNAHYSTNGGTFGQGTKLTVLGGGGGSGGGGSGGGGSGGGGSEVQLVESGGGLVQPGGSLRLSCSVSGFSLSDYYMCWVRQAPGKGLEWVGCLDYFGSTDDASWAKGRFTISKDTSKNTVYLQMNSLRAEDTAVYYCARTDDSRGWGLNIWGQGTLVTVSS = 1.2e+06
2. 509-maxII (scFv, VH tied by name; also called Protein Nr) scFv: EIVMTQSPSTLSASVGDRVIITCQASQNIRIWLSWYQQKPGKAPKLLIYKASTLESGVPSRFSGSGSGTEFTLTISSLQPDDFATYYCQNNAHYSTNGGTFGQGTKLTVLGGGGGSGGGGSGGGGSGGGGSEVQLVESGGGLVQPGGSLRLSCTASGFSLSSYYMSWVRQAPGKGLEWVGILDYVGDTDYASWAKGRFTISKDASKNTVYLQMNSLRAEDTAVYYCARTDDSRGWGLNIWGQGTLVTVSS = 838000
3. 509-max (scFv, VL and VH tied by name; also called Protein Nr; 855) scFv: EIVMTQSPSTLSASVGDRVIITCQASQNIRIWLSWYQQKPGKAPKLLIYKASTLESGVPSRFSGSGSGTEFTLTISSLQPDDFATYYCQNNAHYSTNGGTFGQGTKLTVLGGGGGSGGGGSGGGGSGGGGSEVQLVESGGGLVQPGGSLRLSCTASGFSLSSYYMCWVRQAPGKGLEWVGCLDYVGDTDYASWAKGRFTISKDASKNTVYLQMNSLRAEDTAVYYCARTDDSRGWGLNIWGQGTLVTVSS = 2.26e+06
4. 511-min (scFv, VL and VH tied by name; also called Protein Nr) scFv: EIVMTQSPSTLSASVGDRVIITCQASQSINIWCSWYQQKPGKAPKLLIYRASTLASGVPSRFSGSGSGAEFTLTISSLQPDDFATYYCQANYAYSAGYGAAFGQGTKLTVLGGGGGSGGGGSGGGGSGGGGSEVQLVESGGGLVQPGGSLRLSCAASGFSLNTYYMNWVRQAPGKGLEWVSIIAPDDTTYYASWAKSRFTISRDNSKNTLYLQMNSLRAEDTAVYYCAKSGDTTAWGADIWGQGTLVTVSS = 505000
